Test system: K4 kissing-loop RNA reporter;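 also: bound reporter read as fluorescence of individual clusters on recovered sequencing chips by microscopy, with normalized cluster intensities fitted with a binding model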
procedureSummary: apparent KD of K4 kissing-loop reporter; higher = weaker reporter binding
protocolConditions: Eterna round: R107; input ligand: FMN 200 uM
Catalogue of sequences with associated apparent KD of K4 kissing-loop reporter
assayEndpoint: apparent KD of K4 kissing-loop reporter (nM)

>>> measvalue("UGUGUUGUUUUGAUGUUUGGUGUUUGUUGGCAGGAUAUCGUAGAGGCGAGAAGGGCUUGGGAGCGGUAUGAGUGAUGUUUGUAGG [deedwrmullin]")
373
>>> measvalue("GGGUCAGCGCGAAGGAGCGCCCUGACAGGUUGCUGCCGUGGGCAGUGAUGUUGCUCAGUCCGGCAGGUAGGUCGCGUGCUGACCC")
202
>>> measvalue("AACGUUUUGAGAAGGAGCGCGUUAAGCAGUGAUGUUGCUUUAUUAUAUUUACUACAUAUUUCGCAGGUAGGUCGCUCAAUACGUA [JR_Nu_SSArginiB_Sub025]")
154
>>> measvalue("UAUCUAUGCUCGGCCGCCACUAGGACCGGGUAGUCUCUAGUGAUGUUAGUCUCUACGGCCGCCACUAGGACCGGGAGUGUAGAUA [KL-SSTryp-B16 #DoubleAptamer]")
286
>>> measvalue("ACCGCAUUGGGAUGAUCCCAAUGCGCUGGUCGAGGACCGGUACGGCCGCCACUCGUCCAGUGAUGUUGGAAUUGGGCUACUGAAG [KL-XTryp-A11]")
134
>>> measvalue("GAGAAUCUAAUUGAUACCAGAGUAAGAACCAGUGAUGUUGGAAGAUUCCCUAAUAAAUAACUCCCUUGGCAGCGGAAGAGAAUAG [Totally accidental 2]")
142
>>> measvalue("UACAUAUUAUUUAACAUAAAUUUUACAGAAGGAGCGUGAUCAUUCACAGGUAGGUCGCUGAACUAGUGAUGUUAGUUUUAUUUUU [JR_Nu_ExcArginiA_Sub025]")
62.7
>>> measvalue("GUAGGAUGAGGAGGAGGAUGAAAUACUGAAGGAGCGCAGAGAAAUGCAGGUAGGUCGCGGUAAGGAAGUAUAGUGAUGUUAUAUA [#07 K4 Arginine A Same State]")
414
>>> measvalue("AAACGUUGGUGCGAUACCAGCUGGUCGGAAACGACCUUGCUGGAGUGAUGUUCCAAGUAAAGCCCUUGGCAGCGCACCGACGAAA [MAT - Same State Theophlline B - Mod of Eli - D23]")
122
>>> measvalue("GACAAUUCCGCUUCCGAGCAUACUUGACUGAAGGAUAUCAUCGUGUUGAGAAGGUCAGUAACAGAGAGUGAUGUUCUUUGAGGUC [theeternabot_sameState_KL_FMN_A_19]")
242
>>> measvalue("GUUAUUCUAAACGCAGUAGUGAUGUUGAUGCGAGGACCGGUACGGCCGCCACUCGACUGCCGUCACGCCCGUCCAACAGCCGGAG [theeternabot_exclusion_KL_Trp_A_20]")
431

* * *

Test system: MS2 coat protein
procedureSummary: apparent KD of MS2 coat protein; designed switch direction (-1 OFF switch, 1 ON switch): 1; higher = weaker reporter binding
protocolConditions: input ligand: microRNA oligo, concentration not stated
In this section we review reported apparent KD of MS2 coat protein values for a set of sequences.
assayEndpoint: apparent KD of MS2 coat protein (µM)

>>> measvalue("AAACGAAACACGGCCACAUGAGGAUCACCCAUGUCGAGUUCACAGGAUAUACCUACGUCCUCGUGGUAGAAGGGUGAGGCUGUG [Rienat] (Eterna round: R96, puzzle: Same State NG 3)")
0.0395
>>> measvalue("CCAUAACUGUGAGGAUAUUGUUGCGUUUAGUGACGAGAAGGCAUUCAUGUGAUAUAUACAUACAUGAGGAUCACCCAUGUUGUA [NG 1 30P] (Eterna round: R96, puzzle: Same State NG 1)")
0.0214
>>> measvalue("UGCUUCGUGUGAGGAUAUGCUGCCGUUUCGGCUGCAGAAGGUACUAUAAUACAUGAGGAUCACCCAUGUCUGUCGGUUUGCGGG [salish99_SSng1_r04_305-lowA] (Eterna round: R96, puzzle: Same State NG 1)")
0.0288
>>> measvalue("CCGCUCCGUGGAGGAUAUGGGCCUGCCCGGGAUAACGGGCCUAACACAUGAGGAUCACCCAUGUCCCAGAAGGCCGCUGGAGCC [Atxerexebe] (Eterna round: R96, puzzle: Same State NG 2)")
0.04
>>> measvalue("GUAGCAUACCGAGGAUAUUCAUAUUAUACAUGAGGAUCACCCAUGUGGCCACAUUAGUGGCCUUGGGAGAAGGCGGAAUGCUAC [Xeonanis - 20 Mod37] (Eterna round: R96, puzzle: Same State NG 2)")
0.29
>>> measvalue("CUGAGCAAUCUAGGAUAUCACGUCGAUUAGACGUGAGAAGGAGAUCAUAACAUGAGGAUCACCCAUGUAUUACAUGAAGCUCAG [SSNG1/7-A2] (Eterna round: R96, puzzle: Same State NG 1)")
0.0138
>>> measvalue("GGUAUUAACACAGGAUAUGCUUACGAAACGUAAGCAGAAGGGUGAACAUGAGGAUCACCCAUGUAUGUACCAGGGCGUGAGCCC [JL SSNG1 1.73] (Eterna round: R96, puzzle: Same State NG 1)")
0.51
>>> measvalue("CUGAGCGAUCAAGGAUAUCACGUCGUUUAGACGUGAGAAGGUGAUAAUUACAUGAGGAUCACCCAUGUAUAACAUGAAGCUCAG [SSNG1/9-A3] (Eterna round: R96, puzzle: Same State NG 1)")
0.0164
>>> measvalue("AGUCCAGCCUGAGCUGGACAAAAGCAUGUACAUGAGGAUCACCCAUGUUCAUGUACAAGCUUUUUGCUCGUCGGAAU [Mat - hsa-mir-208a - Mod of JL - 49] (Eterna round: R96, puzzle: Sensor for hsa-mir-208a)")
0.0166
>>> measvalue("AGUCCAGCCUGAGCUGGACAAAAGCAUGUACAUGAGGAUCACCCAUGUCAUGUACAAGCUUUUUGCUCGUCUUAAUA [JL zipper 49] (Eterna round: R96, puzzle: Sensor for hsa-mir-208a)")
0.0162
>>> measvalue("GCCGCGUUUCGCGCCUACAUGAGGAUCACCCAUGUUUGUGGGCAGGAUAUCGUCCGCUCUGCGGGCGAGAAGGGCUGUUGUGGG [salish99_SSNG3_R04_024] (Eterna round: R96, puzzle: Same State NG 3)")
0.159
>>> measvalue("CUCAACAACACAGGAUAUCCAGGGAAAAGCCCUGGAGAAGGGUGACCAACAUGAGGAUCACCCAUGUGACGGCUAAACCGUCUG [Inususisre] (Eterna round: R96, puzzle: Same State NG 1)")
0.509
>>> measvalue("UUAUUAUUUACAUGAGGAUCACCCAUGUUUUUAUGUCAGAGAUAGGAUAUAGUAGUCUCGUUUUACUAGAAGGAUCUUUUUAUU [JR_SSNG3_Sub084] (Eterna round: R96, puzzle: Same State NG 3)")
0.0158
>>> measvalue("GUGGUCAGACAUGAGGAUCACCCAUGUGGAAUAAAUAACACAGAGGAUAUGGAAUAUAAAAUAUACCAGAAGGCUGGAUUGGUG (Eterna round: R96, puzzle: Same State NG 3)")
0.188
>>> measvalue("UGGUACAUGGGAGGAUAUCAUGCAAACAUGAGGAUCACCCAUGUAGCCAUGGAGACAUGGGUAUAUGAGAAGGCCCAUGUACCU [JL SSNG1 3.52] (Eterna round: R96, puzzle: Same State NG 2)")
0.0519
>>> measvalue("AAAGAAAACGCAGGAUAUCCCGGAAUGGAACCGGGAGAAGGGUGACCGGUACAUGAGGAUCACCCAUGUAGAGCAAAGGCUCAA [Oninqu] (Eterna round: R96, puzzle: Same State NG 1)")
0.114
>>> measvalue("AUUAUUAAUGCAGGAUAUGAUUAACAUGAGGAUCACCCAUGUGGUGUUGUGAGUAAGGAGAGUGAUCAGAAGGGCAUUUUUGUU [JMF's solution 14] (Eterna round: R96, puzzle: Same State NG 2)")
0.33
>>> measvalue("UUAUCUCAGACAUGAGGAUCACCCAUGUGGUUAUGACUUAGACAGGAUAUAGUAGUAUCGAAAUACUAGAAGGGUCAUUUUAUU [JR_SSNG3_Sub021] (Eterna round: R96, puzzle: Same State NG 3)")
0.0975
